These entries and their values trace back to patent US10981932B2.

tested on: A2780; assay: Anti-proliferative effect (CellTiter-Glo, 72 h), A2780; type: cell-based; conditions: A2780 cells, median, read-out: IC50 antiproliferation assay A2780 [M] (median)
result-type: IC50 (M)

>  <compound>
COCCn1nc2c(c1C)-c1cccc3c(CCCOc4cccc5ccccc45)c(C(=O)O)n(c13)CCCCOC2 (single isomer, unassigned; enantiomer 2)

>  <result-type>
IC50

>  <reported>
1.52e-05

$$$$
>  <compound>
CCc1c2c(nn1CCN1CCOCC1)COCCCCn1c(C(=O)O)c(CCCOc3cccc4ccccc34)c3ccc(C)c-2c31 (single isomer, unassigned; enantiomer 1) [Example 205]

>  <result-type>
IC50

>  <reported>
1.03e-05

$$$$
>  <compound>
Cn1nc(CN2CCCCC2)c2c1COCCCCn1c(C(=O)O)c(CCCOc3cccc4ccccc34)c3cccc-2c31 (single isomer, unassigned; enantiomer 2)

>  <result-type>
IC50

>  <reported>
2.87e-05

$$$$
>  <compound>
CN1CCCn2c(C(=O)O)c(CCCOc3cccc4ccccc34)c3cccc(c32)-c2c(CN3CCOCC3)nn(C)c2C1 (single isomer, unassigned; enantiomer 2)

>  <result-type>
IC50

>  <reported>
1.95e-05

$$$$

I. O=C(O)c1c(CCCOc2cccc3ccccc23)c2cccc3c2n1CCCCOCc1nn2c(c1-3)CCCC2 (single isomer, unassigned) [Example 255]
II. Cc1ccc2c(C(C)CCOc3cccc4cc(F)ccc34)c(C(=O)O)n3c2c1-c1c(nn(C)c1C)COCCCC3 (single isomer, unassigned) [Example 280]
III. CCn1nc2c(c1C1CC1)-c1cccc3c(CCCOc4cccc5ccccc45)c(C(=O)O)n(c13)CCCCOC2 (single isomer, unassigned; enantiomer 2)
Given 3 compounds, produce a descending ranking by IC50. Order the labels as requested and give them as your answer.
I, III, II
